# target system: turkey β3C-adrenoceptor (tβ3C) (Meleagris gallopavo)
# Sequence (A0A803YLI8 entry or part of it): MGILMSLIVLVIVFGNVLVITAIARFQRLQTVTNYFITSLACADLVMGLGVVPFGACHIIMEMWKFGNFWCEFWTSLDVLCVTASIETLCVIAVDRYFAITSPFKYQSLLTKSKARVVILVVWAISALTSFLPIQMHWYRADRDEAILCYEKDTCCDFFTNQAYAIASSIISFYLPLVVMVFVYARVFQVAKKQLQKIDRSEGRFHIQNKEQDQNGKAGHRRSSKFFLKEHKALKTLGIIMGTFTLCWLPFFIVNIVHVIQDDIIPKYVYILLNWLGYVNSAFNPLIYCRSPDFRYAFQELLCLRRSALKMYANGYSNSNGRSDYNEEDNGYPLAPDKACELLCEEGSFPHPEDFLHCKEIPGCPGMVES
# protocol details: CRE-SPAP production, CHO tβ3C cells
# Assay type: cell-based
# experimental context: Log KD CGP20712A, vs agonist formoterol, CRE-SPAP, CHO tβ3C cells
measure name: Kd

compound | target system | value observed
Cn1cc(C(F)(F)F)nc1-c1ccc(OCC(O)CNCCOc2ccc(O)c(C(N)=O)c2)cc1 (stereo not shown) [CGP20712A] | turkey β3C-adrenoceptor (tβ3C) (Meleagris gallopavo) | 3.63 µM

---

# target system: turkey β4C-adrenoceptor (tβ4C) (Meleagris gallopavo)
# Construct: expressed in transfected cells
# Sequence (P43141 whole entry): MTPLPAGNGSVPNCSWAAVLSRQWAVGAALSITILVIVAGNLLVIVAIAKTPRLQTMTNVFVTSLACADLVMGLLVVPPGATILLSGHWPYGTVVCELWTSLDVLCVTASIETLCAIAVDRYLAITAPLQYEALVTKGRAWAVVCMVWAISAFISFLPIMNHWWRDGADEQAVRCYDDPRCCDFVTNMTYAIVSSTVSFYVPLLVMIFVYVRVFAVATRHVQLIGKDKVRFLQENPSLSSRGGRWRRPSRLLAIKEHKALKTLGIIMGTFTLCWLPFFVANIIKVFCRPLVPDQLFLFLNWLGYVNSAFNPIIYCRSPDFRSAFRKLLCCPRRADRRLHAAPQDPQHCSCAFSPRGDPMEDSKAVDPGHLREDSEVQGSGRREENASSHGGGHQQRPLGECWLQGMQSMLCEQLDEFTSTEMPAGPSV
# protocol details: cell-based
# Type: binding
measure name: Kd

compound | measure name | value observed
CC(C)NCC(O)c1ccc2ccccc2c1 (stereo not shown) | Kd | 87.1 nM
O=C(NCCNCC(O)COc1ccc(O)cc1)N1CCOCC1 (stereo not shown) | Kd | 589 nM
OCc1cc(C(O)CNCCCCCCOCCCCc2ccccc2)ccc1O (stereo not shown) | Kd | 81.3 nM
COc1ccc(CC(C)NCC(O)c2ccc(O)c(NC=O)c2)cc1 (stereo not shown) | Kd | 20 nM
CC(Cc1ccc(O)cc1)NCC(O)c1cc(O)cc(O)c1 (stereo not shown) | Kd | 603 nM
COCCc1ccc(OCC(O)CNC(C)C)cc1 (stereo not shown) | Kd | 1660 nM
CC(C)(C)NCC(O)c1cc(Cl)c(N)c(Cl)c1 (stereo not shown) | Kd | 363 nM
